- Tested on: T1, in-line fusion protein of human IL-36R extracellular domain and IL1RAcP extracellular domain expressed with … (human; mouse, UniProt Q9HB29 20-337; Q9NPH3 21-359, limits assumed)
- T1 construct: not shown: mouse IgG2a Fc
- T1 sequence (looked up): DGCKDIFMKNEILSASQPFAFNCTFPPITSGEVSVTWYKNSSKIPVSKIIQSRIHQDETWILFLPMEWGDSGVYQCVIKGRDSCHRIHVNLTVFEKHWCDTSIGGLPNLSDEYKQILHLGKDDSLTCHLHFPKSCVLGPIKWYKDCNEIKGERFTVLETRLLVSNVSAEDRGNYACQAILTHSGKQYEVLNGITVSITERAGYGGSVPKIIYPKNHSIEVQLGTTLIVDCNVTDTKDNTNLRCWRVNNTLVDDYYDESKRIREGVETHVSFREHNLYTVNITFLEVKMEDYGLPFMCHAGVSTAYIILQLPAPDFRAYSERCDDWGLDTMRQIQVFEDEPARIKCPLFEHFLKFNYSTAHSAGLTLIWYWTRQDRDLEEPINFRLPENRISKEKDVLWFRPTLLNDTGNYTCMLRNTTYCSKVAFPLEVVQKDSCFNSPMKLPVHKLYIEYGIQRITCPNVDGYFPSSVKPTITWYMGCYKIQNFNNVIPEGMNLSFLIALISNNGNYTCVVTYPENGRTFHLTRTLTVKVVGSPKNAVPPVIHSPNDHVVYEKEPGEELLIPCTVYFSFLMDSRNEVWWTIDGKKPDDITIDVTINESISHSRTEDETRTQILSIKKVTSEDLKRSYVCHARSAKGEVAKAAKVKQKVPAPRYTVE
- Test description: SPR Biacore 4000, mAb captured on anti-hFc, 25C
Reported endpoint: 100 nM hIL-36R-Trap-mFc Bound (RU)
Write the answer as a number in RU, unit excluded.

[[record]]
binder = "H4H14709P (antibody, human IgG4 S228P, kappa, V domains shown, Fully human anti-IL-36R antibody) VH: EVQLVESGGGLVQPGGSLRLSCAASGFTFSDYAMSWVRQAPGKGLEWVSGISGNGGDTYYGDFVKGRFTISRDNSKNTLYLQMNSLRGEDTAAYFCVIDLDYWGQGTLVTVSS VL: DIQMTQSPSTLSASEGDRVTITCRASQSISSWLAWYQQKPGKAPRLLIYKASILGDGVPSRFSGSGSGTEFTLTISSLQPDDFATYYCHQYNSYLWTFGQGTKVEIKR"
recorded_measurement = 173

[[record]]
binder = "H4H14757P (antibody, human IgG4 S228P, kappa, V domains shown, Fully human anti-IL-36R antibody) VH: EVQLVESGGGLVQPGRSLRLSCTASGFTFDDYAMHWVRQAPGKGLEWVSGIRWNGGSIGYVDSVKGRFTISRDNAKKSLHLQMNSLKTEDTALYYCAKDIGDILTGFYGEYGMDVWGQGTTVTVSS VL: DIQMTQSPSSLSASEGDRVTITCRASQSISSYLNWYQQKAGKAPNLLIYAASSLQSGVPSRFSGSGSGTEYTLTISSLQPEDFATYYCQQSYIIPYTFGQGTKLEIKR"
recorded_measurement = 202


Proceed to the following item.
[Q] For the binder H4H14706P2 (antibody, human IgG4 S228P, kappa, V domains shown, Fully human anti-IL-36R antibody) VH: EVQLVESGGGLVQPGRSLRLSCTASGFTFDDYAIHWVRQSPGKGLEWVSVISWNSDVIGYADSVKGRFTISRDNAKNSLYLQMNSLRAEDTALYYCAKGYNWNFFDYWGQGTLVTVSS VL: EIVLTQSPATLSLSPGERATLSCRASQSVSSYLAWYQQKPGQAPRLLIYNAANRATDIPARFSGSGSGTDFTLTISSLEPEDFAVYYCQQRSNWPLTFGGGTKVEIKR , give its measured 100 nM hIL-36R-Trap-mFc Bound (RU) value.
[A] 205
